The reported measurements were obtained from the supplement of paper PMC10567573.

B1: PDLIM4 (parent)
chain: FLDERLYCESHAKARVKPPEGYDV

- Variants of: B1
- methodNotes: protein stability index of a GFP-peptide fusion (GPS, HEK-293T) (PSI 1-6); higher = more stable;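 also: lentivirally expressed fusions sorted by FACS into six bins by GFP to DsRed ratio, PSI derived from sequencing read proportions per bin multiplied by bin number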
- testParameters: c terminus: a fixed tail appended
This section presents variants with their documented protein stability index values.
Answer with a number only.

Solved cases (10 shown):
[[record]]
mutation = "K13D"
measuredendpoint = "protein stability index"
observed = 1.32

[[record]]
mutation = "P18F"
measuredendpoint = "protein stability index"
observed = 2.16

[[record]]
mutation = "A12Y"
measuredendpoint = "protein stability index"
observed = 1.77

[[record]]
mutation = "V24I"
measuredendpoint = "protein stability index"
observed = 2.47

[[record]]
mutation = "R5G"
measuredendpoint = "protein stability index"
observed = 2.47

[[record]]
mutation = "G21L"
measuredendpoint = "protein stability index"
observed = 1.77

[[record]]
mutation = "S10L"
measuredendpoint = "protein stability index"
observed = 2.69

[[record]]
mutation = "K13Q"
measuredendpoint = "protein stability index"
observed = 1.61

[[record]]
mutation = "P19G"
measuredendpoint = "protein stability index"
observed = 2.01

[[record]]
mutation = "D3Q"
measuredendpoint = "protein stability index"
observed = 1.53


*Q* Which protein stability index is listed for `E20M` ?
*A* 2.03
